Target: human CD33 L187A (human, UniProt P20138 18-364)
Sequence (P20138 18-364 L187A limits assumed): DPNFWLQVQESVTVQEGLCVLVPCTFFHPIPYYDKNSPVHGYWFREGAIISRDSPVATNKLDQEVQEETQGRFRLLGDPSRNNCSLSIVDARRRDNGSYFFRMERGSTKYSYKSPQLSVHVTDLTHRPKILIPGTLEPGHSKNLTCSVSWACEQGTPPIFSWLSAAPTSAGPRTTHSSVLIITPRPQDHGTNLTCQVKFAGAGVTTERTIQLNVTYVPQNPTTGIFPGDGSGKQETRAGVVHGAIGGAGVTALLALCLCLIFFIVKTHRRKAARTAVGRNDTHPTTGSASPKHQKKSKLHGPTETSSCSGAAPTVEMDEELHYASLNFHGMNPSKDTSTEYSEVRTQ
Experiment: alanine scan, flow cytometry, HEK293-T;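 also: antibody binding to each alanine-substituted CD33 mutant expressed transiently in HEK293-T, read as fluorescence minus background, mean of duplicates, relative to wild-type CD33 set as 100%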
readout: Mean % WT Binding (%)
Numbers only, in %.

Known Mean % WT Binding results, listed for orientation:
>  <binder>
Refmab #3 (antibody, V domains shown, In the alanine scan antibodies were used as IgG or Fab) VH: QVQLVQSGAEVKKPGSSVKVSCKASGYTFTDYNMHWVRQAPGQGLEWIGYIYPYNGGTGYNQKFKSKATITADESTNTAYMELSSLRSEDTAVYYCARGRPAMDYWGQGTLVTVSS VL: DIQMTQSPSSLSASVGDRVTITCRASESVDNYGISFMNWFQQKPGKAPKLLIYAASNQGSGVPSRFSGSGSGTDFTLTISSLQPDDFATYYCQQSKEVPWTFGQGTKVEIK

>  <reported_value>
95.5

$$$$
>  <binder>
Refmab #1 (antibody, V domains shown, In the alanine scan antibodies were used as IgG or Fab; also called hP67.6) VH: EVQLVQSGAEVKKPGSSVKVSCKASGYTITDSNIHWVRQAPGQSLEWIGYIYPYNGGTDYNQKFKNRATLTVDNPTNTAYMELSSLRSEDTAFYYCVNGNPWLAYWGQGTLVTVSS VL: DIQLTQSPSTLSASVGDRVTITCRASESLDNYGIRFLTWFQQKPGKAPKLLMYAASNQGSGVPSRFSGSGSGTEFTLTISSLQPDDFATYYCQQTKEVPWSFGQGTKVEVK

>  <reported_value>
92.3

$$$$
>  <binder>
Refmab #2 (antibody, V domains shown, In the alanine scan antibodies were used as IgG or Fab) VH: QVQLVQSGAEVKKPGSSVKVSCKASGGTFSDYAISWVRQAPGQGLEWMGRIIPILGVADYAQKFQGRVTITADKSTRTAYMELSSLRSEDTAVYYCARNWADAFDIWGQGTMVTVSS VL: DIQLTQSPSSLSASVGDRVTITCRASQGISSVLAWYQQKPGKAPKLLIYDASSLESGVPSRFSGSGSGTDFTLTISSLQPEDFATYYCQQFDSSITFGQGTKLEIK

>  <reported_value>
144

$$$$

The binder Refmab #4 (antibody, V domains shown, In the alanine scan antibodies were used as IgG or Fab) VH: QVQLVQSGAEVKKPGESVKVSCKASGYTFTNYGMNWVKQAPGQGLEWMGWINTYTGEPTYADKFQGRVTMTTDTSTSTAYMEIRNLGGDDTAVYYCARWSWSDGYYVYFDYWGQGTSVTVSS VL: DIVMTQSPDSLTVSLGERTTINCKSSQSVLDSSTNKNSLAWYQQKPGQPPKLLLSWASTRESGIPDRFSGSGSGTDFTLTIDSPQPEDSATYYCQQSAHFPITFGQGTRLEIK showed Mean % WT Binding equal to 108
